SUBJECT OF TEST: T1, human CD71 extracellular domain (human, UniProt P02786 89-760, biotinylated)
T1 construct: also called hCD71; CD71-ECD
ASSAY PROTOCOL: primary ELISA, RLU over HSA
Param label: returns yes (1) when hCD71:HSA < 200, returns no (0) otherwise, including exact equality.

BINDER: CD71-binding FN3 domain of SEQ ID NO: 489 (designed binder) MLAPKNLVVSRVTEDSARLSWTAPDAAFDSFFIGYLEPQPPGEAISLLVPGSERSYDLTGLKPGTEYNVTIQGVKGGFPSSPLLAGFTT
CLASS ASSIGNMENT: no (0)

BINDER: CD71-binding FN3 domain of SEQ ID NO: 472 (designed binder) MLPAPKNLVVSRVTEDSARLSWTAPDAAFDSFFIGYLEPQPPGEAIELYVPGSERSYDLTGLKPGTEYNVTIQGVKGGFPSLPLVATFTT
CLASS ASSIGNMENT: yes (1)

BINDER: CD71-binding FN3 domain of SEQ ID NO: 515 (designed binder) MLPAPKNLVVSRVTEDSARLSWTAPDAAFDSFFIGYLEPQPPGEAIALWVPGSERSYDLTGLKPGTEYNVTIQGVKGGFPSTPLIAQFTT
CLASS ASSIGNMENT: yes (1)

BINDER: CD71-binding FN3 domain of SEQ ID NO: 531 (designed binder) MLPAPKNLVVSRVTEDSARLSWTAPDAAFDSFEIGYFEYSYYGEAIVLTVPGSERSYDLTGLKPGTEYRVYIGGVKGGGWSRPLSAIFTT
CLASS ASSIGNMENT: no (0)
